System: LNCaP tumor-transplanted mouse
EXPERIMENT: Internal radioactivity distribution using LNCaP tumor-transplanted mouse
Format: in vivo
TEST CONTEXT: 24 h after administration
QUANTITY KIND: Heart (% ID/g)

O=C(O)CC[C@H](NC(=O)N[C@@H](CCCCNC(=O)[C@H](Cc1ccc2ccccc2c1)NC(=O)[C@H]1CC[C@H](CNC(=O)CCC(C(=O)O)N2CCN(CC(=O)O)CCN(C(CCC(=O)N[C@@H](CCCCNC(=O)CCCc3ccc(I)cc3)C(=O)O)C(=O)O)CCN(CC(=O)O)CC2)CC1)C(=O)O)C(=O)O (stereo partly drawn) [[^111In]In-PSMA-NAT-DA1, metal not drawn]: 3.14
O=C([O-])CN(Cc1cccc(C(=O)[O-])n1)C[C@H](Cc1ccc(NC(=O)[C@H](CCCCNC(=O)CCC(=O)NCCCC[C@H](NC(=O)N[C@@H](CCC(=O)O)C(=O)O)C(=O)O)NC(=O)COCCOCCOCC(=O)N[C@@H](CCCCNC(=O)CCCc2ccc(I)cc2)C(=O)O)cc1)N(CC(=O)[O-])Cc1cccc(C(=O)[O-])n1.[111In+3] [[^111In]In-Octapa-3]: 2.50
O=C([O-])CN1CCN(C(CCC(=O)NCCCC[C@H](NC(=O)N[C@@H](CCC(=O)O)C(=O)O)C(=O)O)C(=O)[O-])CCN(CC(=O)[O-])CCN(C(CCC(=O)Nc2ccccc2)C(=O)[O-])CC1.[111In+3] (stereo partly drawn) [[^111In]In-PSMA-DB, reference compound]: 0.43

* * *

Item-by-item account of Kidney
Tested on: LNCaP tumor-transplanted mouse
EXPERIMENT: Internal radioactivity distribution using LNCaP tumor-transplanted mouse
Assay type: in vivo
TEST CONTEXT: 4 h after administration
QUANTITY KIND: Kidney (% ID/g)

O=C([O-])CN(Cc1cccc(C(=O)[O-])n1)C[C@H](Cc1ccc(NC(=O)[C@H](CCCCNC(=O)CCC(=O)NCCCC[C@H](NC(=O)N[C@@H](CCC(=O)O)C(=O)O)C(=O)O)NC(=O)CCCc2ccc(I)cc2)cc1)N(CC(=O)[O-])Cc1cccc(C(=O)[O-])n1.[111In+3] [[^111In]In-Octapa-2]: 177
O=C([O-])CN(CCN(CCc1ccc(NC(=O)[C@H](CCCCNC(=O)CCC(=O)NCCCC[C@H](NC(=O)N[C@@H](CCC(=O)O)C(=O)O)C(=O)O)NC(=O)CCCc2ccc(I)cc2)cc1)CCN(CC(=O)[O-])Cc1cccc(C(=O)[O-])n1)Cc1cccc(C(=O)[O-])n1.[111In+3] [[^111In]In-Neunpa-2]: 126
O=C([O-])CN1CCN(C(CCC(=O)NCCCC[C@H](NC(=O)N[C@@H](CCC(=O)O)C(=O)O)C(=O)O)C(=O)[O-])CCN(CC(=O)[O-])CCN(C(CCC(=O)Nc2ccccc2)C(=O)[O-])CC1.[111In+3] (some centres unmarked) [[^111In]In-PSMA-DB, reference compound]: 22.7
O=C([O-])CN(Cc1cccc(C(=O)[O-])n1)C[C@H](Cc1ccc(NC(=O)CCCCCNC(=O)CCC(=O)NCCCC[C@H](NC(=O)N[C@@H](CCC(=O)O)C(=O)O)C(=O)O)cc1)N(CC(=O)[O-])Cc1cccc(C(=O)[O-])n1.[111In+3] [[^111In]In-Octapa-1, reference compound]: 112
O=C([O-])CN(Cc1cccc(C(=O)[O-])n1)C[C@H](Cc1ccc(NC(=O)[C@H](CCCCNC(=O)CCC(=O)NCCCC[C@H](NC(=O)N[C@@H](CCC(=O)O)C(=O)O)C(=O)O)NC(=O)COCCOCCOCC(=O)N[C@@H](CCCCNC(=O)CCCc2ccc(I)cc2)C(=O)O)cc1)N(CC(=O)[O-])Cc1cccc(C(=O)[O-])n1.[111In+3] [[^111In]In-Octapa-3]: 100
O=C([O-])CN1CCN(C(CCC(=O)NCCCC[C@H](NC(=O)N[C@@H](CCC(=O)O)C(=O)O)C(=O)O)C(=O)[O-])CCN(CC(=O)[O-])CCN(C(CCC(=O)N[C@@H](CCCCNC(=O)CCCc2ccc(I)cc2)C(=O)O)C(=O)[O-])CC1.[111In+3] (some centres unmarked) [[^111In]In-PSMA-DA1]: 63.5
O=C(O)CC[C@H](NC(=O)N[C@@H](CCCCNC(=O)[C@H](Cc1ccc2ccccc2c1)NC(=O)[C@H]1CC[C@H](CNC(=O)CCC(C(=O)O)N2CCN(CC(=O)O)CCN(C(CCC(=O)N[C@@H](CCCCNC(=O)CCCc3ccc(I)cc3)C(=O)O)C(=O)O)CCN(CC(=O)O)CC2)CC1)C(=O)O)C(=O)O (some centres unmarked) [[^111In]In-PSMA-NAT-DA1, metal not drawn]: 66.2
O=C([O-])CN(CCN(CCc1ccc(NC(=O)CCCCCNC(=O)CCC(=O)NCCCC[C@H](NC(=O)N[C@@H](CCC(=O)O)C(=O)O)C(=O)O)cc1)CCN(CC(=O)[O-])Cc1cccc(C(=O)[O-])n1)Cc1cccc(C(=O)[O-])n1.[111In+3] [[^111In]In-Neunpa-1, reference compound]: 125

* * *

Test system: LNCaP tumor-transplanted mouse
EXPERIMENT: Internal radioactivity distribution using LNCaP tumor-transplanted mouse
Assay type: in vivo
TEST CONTEXT: 1 h after administration
Item-by-item account of Pancreas
QUANTITY KIND: Pancreas (% ID/g)

O=C([O-])CN(CCN(CCc1ccc(NC(=O)[C@H](CCCCNC(=O)CCC(=O)NCCCC[C@H](NC(=O)N[C@@H](CCC(=O)O)C(=O)O)C(=O)O)NC(=O)CCCc2ccc(I)cc2)cc1)CCN(CC(=O)[O-])Cc1cccc(C(=O)[O-])n1)Cc1cccc(C(=O)[O-])n1.[111In+3] [[^111In]In-Neunpa-2]: 1.61
O=C([O-])CN(Cc1cccc(C(=O)[O-])n1)C[C@H](Cc1ccc(NC(=O)[C@H](CCCCNC(=O)CCC(=O)NCCCC[C@H](NC(=O)N[C@@H](CCC(=O)O)C(=O)O)C(=O)O)NC(=O)CCCc2ccc(I)cc2)cc1)N(CC(=O)[O-])Cc1cccc(C(=O)[O-])n1.[111In+3] [[^111In]In-Octapa-2]: 1.73
O=C([O-])CN1CCN(C(CCC(=O)NCCCC[C@H](NC(=O)N[C@@H](CCC(=O)O)C(=O)O)C(=O)O)C(=O)[O-])CCN(CC(=O)[O-])CCN(C(CCC(=O)Nc2ccccc2)C(=O)[O-])CC1.[111In+3] (stereo partly drawn) [[^111In]In-PSMA-DB, reference compound]: 0.74
O=C([O-])CN1CCN(C(CCC(=O)NCCCC[C@H](NC(=O)N[C@@H](CCC(=O)O)C(=O)O)C(=O)O)C(=O)[O-])CCN(CC(=O)[O-])CCN(C(CCC(=O)N[C@@H](CCCCNC(=O)CCCc2ccc(I)cc2)C(=O)O)C(=O)[O-])CC1.[111In+3] (stereo partly drawn) [[^111In]In-PSMA-DA1]: 3.34
O=C([O-])CN(CCN(CCc1ccc(NC(=O)CCCCCNC(=O)CCC(=O)NCCCC[C@H](NC(=O)N[C@@H](CCC(=O)O)C(=O)O)C(=O)O)cc1)CCN(CC(=O)[O-])Cc1cccc(C(=O)[O-])n1)Cc1cccc(C(=O)[O-])n1.[111In+3] [[^111In]In-Neunpa-1, reference compound]: 0.57
O=C([O-])CN(Cc1cccc(C(=O)[O-])n1)C[C@H](Cc1ccc(NC(=O)CCCCCNC(=O)CCC(=O)NCCCC[C@H](NC(=O)N[C@@H](CCC(=O)O)C(=O)O)C(=O)O)cc1)N(CC(=O)[O-])Cc1cccc(C(=O)[O-])n1.[111In+3] [[^111In]In-Octapa-1, reference compound]: 0.62
O=C(O)CC[C@H](NC(=O)N[C@@H](CCCCNC(=O)[C@H](Cc1ccc2ccccc2c1)NC(=O)[C@H]1CC[C@H](CNC(=O)CCC(C(=O)O)N2CCN(CC(=O)O)CCN(C(CCC(=O)N[C@@H](CCCCNC(=O)CCCc3ccc(I)cc3)C(=O)O)C(=O)O)CCN(CC(=O)O)CC2)CC1)C(=O)O)C(=O)O (stereo partly drawn) [[^111In]In-PSMA-NAT-DA1, metal not drawn]: 7.32
O=C([O-])CN1CCN(C(CCC(=O)NCCC(=O)N2Cc3ccccc3-c3c(nnn3CCOCCOCCOCCOCCC(=O)NCCCC[C@H](NC(=O)N[C@@H](CCC(=O)O)C(=O)O)C(=O)O)-c3ccccc32)C(=O)[O-])CCN(CC(=O)[O-])CCN(C(CCC(=O)N[C@@H](CCCCNC(=O)CCCc2ccc(I)cc2)C(=O)O)C(=O)[O-])CC1.[111In+3] (stereo partly drawn) [[^111In]In-PtDA]: 2.31
O=C([O-])CN(Cc1cccc(C(=O)[O-])n1)C[C@H](Cc1ccc(NC(=O)[C@H](CCCCNC(=O)CCC(=O)NCCCC[C@H](NC(=O)N[C@@H](CCC(=O)O)C(=O)O)C(=O)O)NC(=O)COCCOCCOCC(=O)N[C@@H](CCCCNC(=O)CCCc2ccc(I)cc2)C(=O)O)cc1)N(CC(=O)[O-])Cc1cccc(C(=O)[O-])n1.[111In+3] [[^111In]In-Octapa-3]: 2.59
